Catalogue of protein stability index values
assay: protein stability index of a GFP-peptide fusion (yeast GPS) (PSI 1-4); higher = more stable; sorted into four equal gates, so the index is relative within each strain; details: doa10∆
Reported metric: protein stability index

- Chain sequence: "EEPSRVDPEQEAHNKAL [RPT4]"
  Reported metric: "protein stability index"
  Result value: 3.4
- Chain sequence: "VTPIIDGIVVKNAVVRS [ARP7]"
  Reported metric: "protein stability index"
  Result value: 1.51
- Chain sequence: "PAIPPVIDLEKIKFDES [BRR2]"
  Reported metric: "protein stability index"
  Result value: 2.85
- Chain sequence: "NVLVTMPVAPTMEVKSF [YMR129W/POM152]"
  Reported metric: "protein stability index"
  Result value: 1.54
- Chain sequence: "NSTSKNTLLQQQNYSKV [SWI1]"
  Reported metric: "protein stability index"
  Result value: 2.33
- Chain sequence: "HTQANEPNSAKKIRFLQ [RGR1]"
  Reported metric: "protein stability index"
  Result value: 2.98
- Chain sequence: "ISSPIVANSPNKRLDVI [YDL088C/ASM4]"
  Reported metric: "protein stability index"
  Result value: 2.71
- Chain sequence: "DDDAVRREVQIQLQEFL [NSL1]"
  Reported metric: "protein stability index"
  Result value: 3.28
- Chain sequence: "YIFFGPIYYQKLKHMVL [RET1]"
  Reported metric: "protein stability index"
  Result value: 1.2
- Chain sequence: "GKISKPRFLNKQERSKQ [PRP28]"
  Reported metric: "protein stability index"
  Result value: 1.9
- Chain sequence: "LMLKKLKNSIMSFIFPS [YML031W/NDC1]"
  Reported metric: "protein stability index"
  Result value: 2.21
- Chain sequence: "ESVIEQIVKYARKGLTP [RPS13]"
  Reported metric: "protein stability index"
  Result value: 3.13
- Chain sequence: "MIYDDAHEISQGVYGAV [BRR2]"
  Reported metric: "protein stability index"
  Result value: 3
- Chain sequence: "IYQIHIPYAAKLLFQEL [RPB2]"
  Reported metric: "protein stability index"
  Result value: 2.64
- Chain sequence: "EYKLRSLTLSFIRHVAK [ECM29]"
  Reported metric: "protein stability index"
  Result value: 2.49
- Chain sequence: "VSNPGDNPPPADNGEEY [MED2]"
  Reported metric: "protein stability index"
  Result value: 3.14
- Chain sequence: "KNFIESESVGAFLSFLA [YJL039C/NUP192]"
  Reported metric: "protein stability index"
  Result value: 2.1
- Chain sequence: "YQSPTIFKIVQSRLMST [MED6]"
  Reported metric: "protein stability index"
  Result value: 1.71
- Chain sequence: "DPDKLKPNDLVGVNKDS [RPT5]"
  Reported metric: "protein stability index"
  Result value: 3.18
- Chain sequence: "RDVELSSDELKVIEEQL [SMC4]"
  Reported metric: "protein stability index"
  Result value: 3.27
